system: Staphylococcus aureus; assay: Antibacterial activity against Staphylococcus aureus ATCC 25923 after 24 hrs by spectrophotometric analysis; type: functional, organism-based; conditions: Staphylococcus aureus, ATCC 25923, 24 h; read-out: IC50
Give measured IC50 for each item. Keep answers brief.

# annotated cases, reported IC50 shown
Compound | Result
COc1ccc(C(c2nnnn2C2CCCCC2)N2CCN(c3cc4c(cc3F)c(=O)c(C(=O)O)cn4Cc3ccc(C(F)(F)F)cc3)CC2)c(OC)c1OC (stereo not drawn) | > 50 µg/mL
CC(C)c1ccc(C(c2nnnn2C2CCCCC2)N2CCN(c3cc4c(cc3F)c(=O)c(C(=O)O)cn4Cc3ccc(C(F)(F)F)cc3)CC2)cc1 (stereo not drawn) | > 50 µg/mL
COc1ccc(C(c2nnnn2C2CCCCC2)N2CCN(c3cc4c(cc3F)c(=O)c(C(=O)O)cn4Cc3ccc(C(F)(F)F)cc3)CC2)c2ccccc12 (stereo not drawn) | 50 µg/mL
CCn1cc(C(=O)O)c(=O)c2cc(F)c(N3CCN(C(c4ccncc4)c4nnnn4C4CCCCC4)CC3)cc21 (stereo not drawn) | 0.37 µg/mL
CC(C)(C)n1nnnc1C(c1ccco1)N1CCN(c2cc3c(cc2F)c(=O)c(C(=O)O)cn3Cc2ccc(C(F)(F)F)cc2)CC1 (stereo not drawn) | 50 µg/mL

Below are some compounds; for each one, tell me its IC50.
1. CC(C)(C)n1nnnc1C(c1ccc(F)cc1)N1CCN(c2cc3c(cc2F)c(=O)c(C(=O)O)cn3Cc2ccc(C(F)(F)F)cc2)CC1 (stereo not drawn)
2. COc1ccc(C(c2nnnn2C(C)(C)C)N2CCN(c3cc4c(cc3F)c(=O)c(C(=O)O)cn4Cc3ccc(C(F)(F)F)cc3)CC2)c(OC)c1OC (stereo not drawn)
3. CCn1cc(C(=O)O)c(=O)c2cc(F)c(N3CCN(C(c4ccncc4)c4nnnn4C(C)(C)C)CC3)cc21 (stereo not drawn)

1 µg/mL
50 µg/mL
0.5 µg/mL
